# assayed_system: T1, hDcn3^P (PONY domain of human DCUN1D3) (Homo sapiens, UniProt Q8IWE4 86-304)
# T1 sequence: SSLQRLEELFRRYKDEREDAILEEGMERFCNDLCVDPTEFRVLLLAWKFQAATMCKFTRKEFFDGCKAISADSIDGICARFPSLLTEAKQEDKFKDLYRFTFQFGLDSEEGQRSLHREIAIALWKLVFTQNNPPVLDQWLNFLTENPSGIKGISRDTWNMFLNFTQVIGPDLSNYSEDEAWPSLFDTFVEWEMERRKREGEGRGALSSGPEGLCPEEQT
# assay_details: ITC, peptide titrated into Dcn PONY domain
Starred links: 1 amine or outer side, 2 acyl side, 3 side chain; linkers in the order of their positions; H or OH if unused. Positions of bridges follow the written chain, without caps; N, C: chain ends. Non-standard residues stand in square brackets, D forms with d. αMeNva(5-ylidene) = C[C@@](CCC=[*:3])(N[*:1])C(=O)[*:2]; S8 = C=CCCCCCC[C@](C)(N)C(=O)O; S5 = C=CCCC[C@](C)(N)C(=O)O; Nle = CCCC[C@H](N)C(=O)O
Consider the following binders and their measured Kd readings.
The figure you give is taken to be in nM; do not add the unit.

Reference set, count: 5
binder	Kd, nM
Ac-MIKLFSLKQQKKEEESAGGTKGSSKK-NH2 (Synthetic peptide of the N-terminus of human Ubc12; also called Acetyl-hUbc12^1-26) [hUbc12^Ac1-26]	10800
Ac-MLTLASKLKRDDGLKGSRTAATASD-NH2 (Synthetic peptide of the N-terminus of human Ube2f; also called Acetyl-hUbe2f^1-25) [hUbe2f^Ac1-25]	2000
Ac-MIKLF[αMeNva(5-ylidene)]LKQ[S8]KK-NH2 (staple 6-10) [hUbc12^Ac1-12 (Met) But:Oct 6, 10]	1520
Ac-MLKLRQLQKKKQKENENSSSIQPN-NH2 (Synthetic peptide of the N-terminus of yeast Ubc12; also called Acetyl-yUbc12^1-24) [yUbc12^Ac1-24]	3400
Ac-[Nle]LKLR[S5]LQK[S5]KQ-NH2 (staple 6-10; SMILES CCCC[C@H](NC(C)=O)C(=O)N[C@@H](CC(C)C)C(=O)N[C@@H](CCCCN)C(=O)N[C@@H](CC(C)C)C(=O)N[C@@H](CCCNC(=N)N)C(=O)N[C@@]1(C)CCCC=CCCC[C@@](C)(C(=O)N[C@@H](CCCCN)C(=O)N[C@@H](CCC(N)=O)C(N)=O)NC(=O)[C@H](CCCCN)NC(=O)[C@H](CCC(N)=O)NC(=O)[C@H](CC(C)C)NC1=O) [yUbc12^Ac1-12 (NorLeu) 6, 10]	1760

Now consider the entry below.
Record request: Kd value, item Ac-MIKLFSLKQQKK-NH2 (also called Acetyl-hUbc12^1-12) [hUbc12^Ac1-12]
6300
